Assay: Half-life in mouse liver microsomes at 1 uM in presence of NADPH by HPLC-ESI-MS/MS analysis
Format: ADME, microsome
# half-life at 1 µM per entry
Respond numerically; units are h and should not be typed.

A selection of reference data follows.
>>> number("C[C@H](CCC(=O)N[C@H](CC(=O)O)Cc1c[nH]c2ccccc12)[C@H]1CC[C@H]2[C@@H]3CC[C@@H]4C[C@H](OC(N)=O)CC[C@]4(C)[C@H]3CC[C@]12C")
2.6
>>> number("C[C@H](CCC(=O)N[C@H](CC(=O)O)Cc1c[nH]c2ccccc12)[C@H]1CC[C@H]2[C@@H]3CC[C@@H]4C/C(=N/O)CC[C@]4(C)[C@H]3CC[C@]12C")
1.01

Now for the compound whose half-life at 1 µM we want.
Task: Which half-life at 1 µM is listed for C[C@H](CCC(=O)N[C@H](CC(=O)O)Cc1c[nH]c2ccccc12)[C@H]1CC[C@H]2[C@@H]3CC[C@@H]4C[C@H](O)CC[C@]4(C)[C@H]3CC[C@]12C ?
Output: 0.28

Source listed as ChEMBL document CHEMBL4002595.
